These data points were gathered from patent US20050287542A1.

Target: calmodulin (Sigma)
Assay: fluorescence emission change of labelled peptide, HEPES/KCl/CaCl2 buffer
Ends that are not written are not given here.
readout-kind: Kd (µM)

- binder: "GQVGRQLAIIGDDINRYC(5‑iodoacetamidofluorescein)-NH2 (also called Bak BH3 peptide; Bak 72-94) [Bak peptide, fluorescein-labelled (Bak-flu)]"
  measured-result: 25
- binder: "GPSQPTYPGDDAPVEDLIRFVGRLLAYFGDTINRYC(5‑iodoacetamidofluorescein)-NH2 (designed binder, p4121-flu tied to p4099 by order and mass difference only; also called p4099 (GAGT); p4121-flu) [p4099, fluorescein-labelled]"
  measured-result: 25
